# target.or.system: human ROR1 protein (recombinant ROR1 antigen, Kactus Biosystems) (human, UniProt Q01973 30-406, limits assumed)
# Sequence (Q01973 30-406 limits assumed): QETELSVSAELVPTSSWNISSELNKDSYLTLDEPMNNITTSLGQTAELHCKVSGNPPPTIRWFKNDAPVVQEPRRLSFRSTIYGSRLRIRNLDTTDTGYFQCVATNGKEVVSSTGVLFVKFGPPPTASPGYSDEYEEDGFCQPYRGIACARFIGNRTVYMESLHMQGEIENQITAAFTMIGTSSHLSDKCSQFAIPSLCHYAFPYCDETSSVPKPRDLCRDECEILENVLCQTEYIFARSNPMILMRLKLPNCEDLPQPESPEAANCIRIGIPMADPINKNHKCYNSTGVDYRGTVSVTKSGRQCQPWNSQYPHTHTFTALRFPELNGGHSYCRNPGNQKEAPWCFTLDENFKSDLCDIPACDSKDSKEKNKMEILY
# measurement.notes: BLI (Octet R8), antibody captured on AHC sensor, ROR1 antigen as analyte
// boundary case: Kd equal to 0.01 µM maps to criterion not met; strictly smaller maps to criterion met

Prompt line: Regarding AM3-ZH7 (antibody, human IgG1, kappa, V domains shown) VH: EVQLVESGGGLVQPGGSLRLSCAASGFTFSSYAMSWVRQAPGKGLEWVSSISTGASAYFPDSVKGRFTISRDNAKNSLYLQMNSLRAEDTAVYYCARITTSTWYMDVWGQGTTVTVSS VL: DIQMTQSPSAMSASVGDRVTITCKASQDIYSYLSWFQQKPGKVPKTLIYRANRLVRGVPSRFSGSGSGQEYTLTISSLQPEDMATYYCLQYDEFPYTFGQGTKLEIKR , kindly confirm whether its Kd is beneath 0.01 µM.
Response line: criterion met

Prompt line: A record lists AM3-ZH3 (antibody, human IgG1, kappa, V domains shown, human IgG1 / kappa) VH: EVQLVESGGGLVQPGGSLRLSCAASGFTFSSYPMSWVRQAPGKGLEWVSSISTGASAYFPDSVKGRFTISRDNAKNSLYLQMNSLRAEDTAVYYCARITTSTWYMDVWGQGTTVTVSS VL: DIQMTQSPSAMSASVGDRVTITCKASQDIYSYLSWFQQKPGKVPKTLIYRANRLVRGVPSRFSGSGSGQEYTLTISSLQPEDMATYYCLQYDEFPYTFGQGTKLEIKR . Is its Kd below 0.01 µM?
Response line: criterion met

Prompt line: Does this binder meet the criterion Kd < 0.01 µM? AM3-ZH1 (antibody, human IgG1, kappa, V domains shown) VH: EVQLVESGGGLVQPGGSLRLSCAASGFTFSSYPMSWVRQAPGKGLEWVSSISTGASAYFPDSVKGRFTISRDNAKNSLYLQMNSLRAEDTAVYYCARYTTSTWYFDVWGQGTTVTVSS VL: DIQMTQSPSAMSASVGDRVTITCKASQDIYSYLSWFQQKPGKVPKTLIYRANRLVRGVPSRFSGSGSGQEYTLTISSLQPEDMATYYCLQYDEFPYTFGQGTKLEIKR
Response line: criterion met

New cases:
Prompt line: Report whether reported Kd is lower than 0.01 µM (strictly) for H10-hVH4-hVL4 (antibody, human IgG1, kappa, V domains shown, also called H10-VH4VL4) VH: EVQLVESGGGLVQPGGSLRLSCAASGFTFSSYAMSWVRQAPGKGLEWVSSISTGASAYFPDSVKGRFTISRDNAKNSLYLQMNSLRAEDTAVYYCARITTSTWYFDVWGQGTTVTVSS VL: DIQMTQSPSAMSASVGDRVTITCKASQDINSYLSWFQQKPGKVPKTLIYRANRLVDGVPSRFSGSGSGQEYTLTISSLQPEDMATYYCLQYDEFPYTFGQGTKLEIKR
Response line: criterion not met

Prompt line: Hi there! Is Kd for AM3-ZH6 (antibody, human IgG1, kappa, V domains shown) VH: EVQLVESGGGLVQPGGSLRLSCAASGFTFSSYAMSWVRQAPGKGLEWVSSISTGASAYFPDSVKGRFTISRDNAKNSLYLQMNSLRAEDTAVYYCARITTSTWYMDVWGQGTTVTVSS VL: DIQMTQSPSAMSASVGDRVTITCKASQDIYSYLSWFQQKPGKVPKTLIYRANRLVGGVPSRFSGSGSGQEYTLTISSLQPEDMATYYCLQYDEFPYTFGQGTKLEIKR below 0.01 µM, do you know?
Response line: criterion not met

Prompt line: Quick check: does AM3-ZH4 (antibody, human IgG1, kappa, V domains shown) VH: EVQLVESGGGLVQPGGSLRLSCAASGFTFSSYAMSWVRQAPGKGLEWVSSISTGASAYFPDSVKGRFTISRDNAKNSLYLQMNSLRAEDTAVYYCARYTTSTWYHDVWGQGTTVTVSS VL: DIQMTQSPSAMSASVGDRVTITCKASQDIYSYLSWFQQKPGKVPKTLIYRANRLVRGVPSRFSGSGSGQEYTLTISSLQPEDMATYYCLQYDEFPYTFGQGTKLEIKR have Kd under 0.01 µM?
Response line: criterion not met
